assay_explanation: Metabolic stability in rat liver microsomes
Type: in vitro ADME
measurement_conditions: 37 °C, NADPH, 0-60 min, read-out: RLM Stability (rat liver microsomal intrinsic clearance)
parameter: microsomal CLint at 10 μM

# molecule, result
records = [
    ("COc1ccc(C(C)C)cc1C1=C(CN(Cc2cc(C(F)(F)F)cc(C(F)(F)F)c2)c2nnn(CC(=O)O)n2)CC(C)(C)CC1 [Compound 17]", "146 µL/min/mg"),
]

---

test_system: CYP2D6 (Homo sapiens)
Construct: from tissue; host or cells: human liver microsomes
Sequence (P10635 whole entry): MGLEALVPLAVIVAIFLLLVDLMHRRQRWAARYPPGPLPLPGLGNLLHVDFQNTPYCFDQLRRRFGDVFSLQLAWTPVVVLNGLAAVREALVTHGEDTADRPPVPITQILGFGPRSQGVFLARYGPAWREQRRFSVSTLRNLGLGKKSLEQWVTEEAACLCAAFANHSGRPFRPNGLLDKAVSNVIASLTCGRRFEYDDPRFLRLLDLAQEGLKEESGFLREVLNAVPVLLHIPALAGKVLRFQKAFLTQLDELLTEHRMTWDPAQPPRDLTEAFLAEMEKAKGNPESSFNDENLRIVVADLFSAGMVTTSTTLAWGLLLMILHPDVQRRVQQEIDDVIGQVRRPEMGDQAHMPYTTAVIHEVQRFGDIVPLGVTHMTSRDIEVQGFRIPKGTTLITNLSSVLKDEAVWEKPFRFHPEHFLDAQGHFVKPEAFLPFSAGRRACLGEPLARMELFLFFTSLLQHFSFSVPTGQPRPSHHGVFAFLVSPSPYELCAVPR
assay_explanation: Cytochrome P450 inhibition assay, CYP2D6
Assay type: in vitro ADME
measurement_conditions: pH 7.4, probe dextromethorphan (5 μM); 10 μM compound, human liver microsomes 0.25 mg/mL, substrate dextromethorphan; read-out: CYPs Direct Inhibition Mean (10 μM) 2D6

# structure_notation, inhibition at 10 min, 10 µM
records = [
    ("COc1ccc(C(C)C)cc1C1=C(CN(Cc2cc(C(F)(F)F)cc(C(F)(F)F)c2)c2nnn(CC(=O)O)n2)CC(C)(C)CC1", "< 20%"),
]
